System name: Peroxisome proliferator-activated receptor gamma/Nuclear receptor coactivator 2 (Homo sapiens)
Sequence (P37231 whole entry): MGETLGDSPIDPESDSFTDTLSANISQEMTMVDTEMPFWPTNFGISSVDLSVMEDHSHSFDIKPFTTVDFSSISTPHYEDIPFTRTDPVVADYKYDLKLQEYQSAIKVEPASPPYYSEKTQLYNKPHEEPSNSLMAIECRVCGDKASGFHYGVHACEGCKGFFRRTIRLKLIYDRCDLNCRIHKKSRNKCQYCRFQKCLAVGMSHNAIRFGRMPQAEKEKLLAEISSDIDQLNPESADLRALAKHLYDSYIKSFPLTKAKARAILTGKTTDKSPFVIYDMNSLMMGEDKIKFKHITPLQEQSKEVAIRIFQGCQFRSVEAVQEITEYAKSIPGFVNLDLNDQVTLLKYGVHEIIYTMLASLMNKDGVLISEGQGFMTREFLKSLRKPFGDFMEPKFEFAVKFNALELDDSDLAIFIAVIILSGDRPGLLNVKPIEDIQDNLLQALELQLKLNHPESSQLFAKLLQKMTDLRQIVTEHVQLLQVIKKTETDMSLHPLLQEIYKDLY
Sequence (Q15596 whole entry, further chain): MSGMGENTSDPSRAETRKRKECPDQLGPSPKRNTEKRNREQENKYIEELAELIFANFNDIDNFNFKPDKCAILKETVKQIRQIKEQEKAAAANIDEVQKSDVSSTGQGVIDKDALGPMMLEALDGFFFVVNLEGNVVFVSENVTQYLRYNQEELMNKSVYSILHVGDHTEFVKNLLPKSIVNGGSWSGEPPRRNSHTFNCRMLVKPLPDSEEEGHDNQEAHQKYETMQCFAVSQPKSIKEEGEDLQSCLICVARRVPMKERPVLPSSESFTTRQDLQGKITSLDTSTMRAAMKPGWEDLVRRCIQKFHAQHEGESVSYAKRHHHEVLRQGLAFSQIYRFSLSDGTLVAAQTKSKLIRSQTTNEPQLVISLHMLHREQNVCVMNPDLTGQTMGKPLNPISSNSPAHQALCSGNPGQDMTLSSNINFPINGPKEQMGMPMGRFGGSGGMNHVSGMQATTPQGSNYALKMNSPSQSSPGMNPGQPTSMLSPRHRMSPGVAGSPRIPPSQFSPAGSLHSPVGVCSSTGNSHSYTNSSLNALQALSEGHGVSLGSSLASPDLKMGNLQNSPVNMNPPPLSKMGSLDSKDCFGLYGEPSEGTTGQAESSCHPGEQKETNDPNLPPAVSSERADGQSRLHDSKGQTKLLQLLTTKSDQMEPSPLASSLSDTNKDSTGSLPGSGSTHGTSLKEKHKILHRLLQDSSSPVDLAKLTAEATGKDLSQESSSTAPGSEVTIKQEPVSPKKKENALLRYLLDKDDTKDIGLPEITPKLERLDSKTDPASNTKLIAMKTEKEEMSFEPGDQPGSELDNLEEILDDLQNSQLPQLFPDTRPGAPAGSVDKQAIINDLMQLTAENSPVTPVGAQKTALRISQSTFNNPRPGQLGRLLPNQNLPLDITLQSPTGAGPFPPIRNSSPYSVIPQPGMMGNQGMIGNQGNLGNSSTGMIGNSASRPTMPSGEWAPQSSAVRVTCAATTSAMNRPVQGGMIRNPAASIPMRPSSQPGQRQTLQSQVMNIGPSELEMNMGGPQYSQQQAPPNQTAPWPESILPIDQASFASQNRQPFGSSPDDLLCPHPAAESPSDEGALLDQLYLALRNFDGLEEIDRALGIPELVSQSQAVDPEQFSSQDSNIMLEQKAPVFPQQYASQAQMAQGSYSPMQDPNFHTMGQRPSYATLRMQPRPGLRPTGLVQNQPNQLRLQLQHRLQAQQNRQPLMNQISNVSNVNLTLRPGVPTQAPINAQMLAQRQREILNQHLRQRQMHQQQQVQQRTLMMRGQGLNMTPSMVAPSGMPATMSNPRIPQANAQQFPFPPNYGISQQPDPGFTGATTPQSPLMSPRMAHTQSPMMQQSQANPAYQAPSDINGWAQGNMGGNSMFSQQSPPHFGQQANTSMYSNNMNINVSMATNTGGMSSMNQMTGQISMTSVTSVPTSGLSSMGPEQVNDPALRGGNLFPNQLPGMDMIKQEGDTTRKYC
Protocol summary: TR-FRET dose response biochemical High Throughput Screening assay for agonists of the steroid receptor coactivator 2 (SRC-2) recruitment by the peroxisome proliferator-activated receptor gamma (PPAR gamma): non-selective agonists. [Related pubchem assays: 1297, 1032 ]
Assay type: functional

Smiles record: Cc1cc2cc(CNC(=O)c3cc4ccccc4o3)ccc2n1C
EC50: 11.1 µM (not active)
--
Smiles record: CCOC(=O)c1sc(NC(=O)c2ccco2)nc1-c1ccccc1
EC50: 14.2 µM (not active)
--
Smiles record: COC(=O)Cc1c(C)c2c(O)cc(C)cc2oc1=O
EC50: > 79.4 µM (not active)

###

EC50 for assorted molecules
System name: Heat shock factor protein 1 (Mus musculus, UniProt P38532)
Sequence (P38532 whole entry): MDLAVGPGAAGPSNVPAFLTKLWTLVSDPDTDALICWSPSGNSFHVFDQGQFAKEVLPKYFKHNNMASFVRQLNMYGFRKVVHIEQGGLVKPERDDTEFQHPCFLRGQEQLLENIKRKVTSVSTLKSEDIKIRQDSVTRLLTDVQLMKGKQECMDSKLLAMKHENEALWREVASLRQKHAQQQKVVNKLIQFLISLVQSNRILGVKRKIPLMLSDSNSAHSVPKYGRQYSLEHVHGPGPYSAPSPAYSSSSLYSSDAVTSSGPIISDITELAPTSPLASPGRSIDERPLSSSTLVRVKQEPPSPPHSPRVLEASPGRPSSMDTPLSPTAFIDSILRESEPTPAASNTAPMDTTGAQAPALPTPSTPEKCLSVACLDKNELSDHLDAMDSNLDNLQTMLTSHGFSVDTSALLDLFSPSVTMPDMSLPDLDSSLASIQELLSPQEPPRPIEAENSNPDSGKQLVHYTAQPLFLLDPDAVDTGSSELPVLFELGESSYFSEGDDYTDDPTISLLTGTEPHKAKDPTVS
Protocol summary: enhancement of HSF1-driven luciferase signal – cell-based, NIH3T3, luminescence, dose retest, confirmation (AID 435004);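 also: stress induced by proteasome inhibitor MG132 added 30 min after compound; luciferase reporter driven by HSF1 response element in NIH3T3 cells; actives raise luminescence as potentiators of the MG132 stress response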
Format: functional
Calls of active or inactive are those of the source.

Molecule: CC(=O)N(C)c1ccc(OCC(O)Cn2c3ccc(Cl)cc3c3cc(Cl)ccc32)cc1 (stereo not drawn)
EC50: > 260 µM (inactive)
//
Molecule: CCCCN(CCCNC(=O)C1CCN(S(=O)(=O)CC)CC1)c1ccccc1
EC50: > 260 µM (inactive)
//
Molecule: O=C1NC(=O)N(c2ccccc2F)C(=O)/C1=C/NCCC1=CCCCC1
EC50: > 260 µM (inactive)
//
Molecule: CC(Cc1ccc(O)c(O)c1)C(C)Cc1ccc(O)c(O)c1 (stereo not drawn) [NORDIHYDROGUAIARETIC ACID]
EC50: 2.32 µM (active)
//
Molecule: CCCCCn1c(SCc2cccc(C)c2)nc2c1c(=O)[nH]c(=O)n2C
EC50: > 260 µM (inactive)
//
Molecule: COc1ccc(NC(=O)CCc2nnc3ccc(NCc4ccc5c(c4)OCO5)nn23)cc1
EC50: > 260 µM (inactive)
//
Molecule: Cc1ccc(NC2=CC(=O)C(=O)c3ccccc32)cc1
EC50: 7.04 µM (active)
//
Molecule: Cn1cc(C(=O)N/N=C/c2cc(Br)cs2)c2ccccc21
EC50: 42.9 µM (active)
//
Molecule: c1ccc(Cn2nnnc2C(c2cccs2)N2CCc3ccccc3C2)cc1 (stereo not drawn)
EC50: > 260 µM (inactive)
//
Molecule: CCOC(=O)c1sc2nc(C)nc(SCC(=O)NC3CCS(=O)(=O)C3)c2c1C (stereo not drawn)
EC50: > 260 µM (inactive)
//
Molecule: Cc1cc(NC(=O)CCC(=O)N(CC(=O)NC2CCCC2)Cc2cccs2)no1
EC50: > 260 µM (inactive)
//
Molecule: COc1cc(O)cc2c1C(=O)OC(C)CCCC(=O)CCC/C=C\2 (stereo not drawn)
EC50: > 260 µM (inactive)
//
Molecule: CC(C)(CNC(=O)/C=C/c1ccc(F)cc1)CNC(=O)/C=C/c1ccc(F)cc1
EC50: 3.75 µM (active)

###

System name: Prothrombin (Bos taurus)
Protocol summary: thrombin protease inhibitors – biochemical, fluorescence polarization, uHTS hits, dose response (AID 602369)
Format: functional
Calls of active or inactive are those of the source.

Smiles record: CC(C)NC(=S)N/N=C/c1sc(N2CCCCC2)nc1-c1cccs1
System name: Prothrombin (Bos taurus)
IC50: 20.1 µM (active)
--
Smiles record: COc1ccccc1NC(=O)CSc1nc(N)c(C#N)cc1C#N
System name: Prothrombin (Bos taurus)
IC50: 55.8 µM (active)
--
Smiles record: CCOC(=O)Cc1csc(NC(=O)c2sc3nc4ccc(C)cc4cc3c2N)n1
System name: Prothrombin (Bos taurus)
IC50: 77.9 µM (active)
--
Smiles record: O=C(N/N=C/c1ccc(Cl)cc1Cl)c1ccc2[nH]cnc2c1
System name: Prothrombin (Bos taurus)
IC50: 51.7 µM (active)
